- TEST METHOD NOTES: Biodistribution in rats
- Type: in vivo, male rats
- ASSAY CONTEXT: 2 min post-injection, i.v.
ASSAY READOUT: Gut (percent injected dose)
Unit percent injected dose implied. Number only.

Some compounds with recorded Gut:
COMPOUND	MEASURE UNIT	Gut
CC(=NO)C(C)(C)NCCCCNC(C)(C)C(Cn1ccnc1[N+](=O)[O-])=NO	percent injected dose	13.4
CC(=NO)C(C)(C)NCCCCCNC(C)(C)C(Cn1ccnc1[N+](=O)[O-])=NO	percent injected dose	13.7
COCC(=NO)C(C)(COC)NCCCCNC(C)(COC)C(COC)=NO (stereo not shown)	percent injected dose	9.5
CCC(=NO)C(C)(C)NCCCCNC(C)(C)C(CC)=NO	percent injected dose	13.9
CC(C)(C=NO)NCCCCNC(C)(C)C(Cn1ccnc1[N+](=O)[O-])=NO	percent injected dose	13.4

Return Gut for the following compound: `CC(=NO)C(C)(C)NCCCCNC(C)(C)C(C)=NO`
11.2

Using the record for `CC(C)(NCCCCNC(C)(C)C(Cn1ccnc1[N+](=O)[O-])=NO)C(Cn1ccnc1[N+](=O)[O-])=NO` , state its measured Gut.
18.2

Indicate its recorded Gut; the compound in question is CC(=NO)C(C)(C)NCCCNC(C)(C)C(C)=NO [Compound X, reference compound]
11.7

Using the record for `CC(=NO)C(C)(C)NCCCCCNC(C)(C)C(C)=NO` , state its measured Gut.
8.2

Report Gut for CC(=NO)C(C)(C)NCCCNC(C)(C)C(Cn1ccnc1[N+](=O)[O-])=NO [Compound V, reference compound]
11.1
